Tested on: A3-KAW (B-Cell Non-Hodgkin's Lymphoma);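 further: after 72 h of two-drug dosing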
Assay: Bliss excess, mean over the matrix (fraction); higher = more synergy
For each entry below, report its Bliss excess value.
Reply with the value as a number alone.

Problem: Which Bliss excess value is on record for COc1cccc(OCCCN)c1-c1cc(Nc2cnc(C#N)cn2)n[nH]1 [Prexasertib] + O=C(c1cc(Cc2n[nH]c(=O)c3ccccc23)ccc1F)N1CCN(C(=O)C2CC2)CC1 [Olaparib] (first compound max 1 µM, 7x7, partner max 10 µM) ?
Result: -0.0146

Problem: Moving on to COc1nnc2ccc(N3CCC(c4ccc(OCCN5CCN(C)C(=O)[C@H]5C)cc4)CC3)nn12 [AZD5153] + Cc1c2c(nn1C)CSCc1cc(n(C)n1)CSc1cc(c3ccccc3c1)OCCCc1c(C(=O)O)n(C)c3c-2c(Cl)ccc13 [AZD5991] (first compound max 1 µM, 7x7, partner max 1 µM)
Result: -0.0289

Problem: Param item: CN(CCO)CC[C@H](CSc1ccccc1)Nc1ccc(S(=O)(=O)NC(=O)c2ccc(N3CCC([C@@H](O)c4ccccc4-c4ccc(Cl)cc4)CC3)cc2)cc1S(=O)(=O)C(F)(F)F [AZD4320] + CN(C)CCCOc1ccc(-c2ccc3ncc4c(c3c2)n(C2CCOCC2)c(=O)n4C)cn1 [AZD0156] (first compound max 1 µM, 7x7, partner max 1 µM)
Result: -0.0197

Problem: Do the same for CC1(C)CCC(CN2CCN(c3ccc(C(=O)NS(=O)(=O)c4ccc(NCC5CCOCC5)c([N+](=O)[O-])c4)c(Oc4cnc5[nH]ccc5c4)c3)CC2)=C(c2ccc(Cl)cc2)C1 [Venetoclax] + C[C@@H](Nc1cc(F)cc(F)c1)c1cc(C(=O)N(C)C)cc2c(=O)cc(N3CCOCC3)oc12 [AZD8186] (first compound max 1 µM, 7x7, partner max 3 µM) please
Result: -0.0047

Problem: Please do the same for NC1(C(=O)N[C@@H](CCO)c2ccc(Cl)cc2)CCN(c2ncnc3[nH]ccc23)CC1 [Capivasertib] + COc1nnc2ccc(N3CCC(c4ccc(OCCN5CCN(C)C(=O)[C@H]5C)cc4)CC3)nn12 [AZD5153] (first compound max 10 µM, 7x7, partner max 1 µM) as well.
Result: -0.0363

Problem: And then COc1nnc2ccc(N3CCC(c4ccc(OCCN5CCN(C)C(=O)[C@H]5C)cc4)CC3)nn12 [AZD5153] + CCN(CCO)CCCOc1ccc2c(Nc3cc(CC(=O)Nc4cccc(F)c4)[nH]n3)ncnc2c1 [AZD2811] (first compound max 1 µM, 7x7, partner max 1 µM) , what is it?
Result: 0.0269

Problem: Same thing, different compound: Cc1c2c(nn1C)CSCc1cc(n(C)n1)CSc1cc(c3ccccc3c1)OCCCc1c(C(=O)O)n(C)c3c-2c(Cl)ccc13 [AZD5991] + Cc1cc2ncnn2cc1Nc1ncc2c(n1)n(C1CCOCC1)c(=O)n2C [AZD7648] (first compound max 1 µM, 7x7, partner max 10 µM)
Result: -0.0101

Problem: Another compound: CC1(C)CCC(CN2CCN(c3ccc(C(=O)NS(=O)(=O)c4ccc(NCC5CCOCC5)c([N+](=O)[O-])c4)c(Oc4cnc5[nH]ccc5c4)c3)CC2)=C(c2ccc(Cl)cc2)C1 [Venetoclax] + CCN(CCO)CCCOc1ccc2c(Nc3cc(CC(=O)Nc4cccc(F)c4)[nH]n3)ncnc2c1 [AZD2811] (first compound max 1 µM, 7x7, partner max 1 µM)
Result: -0.0238

Problem: Same thing, different compound: NC1(C(=O)N[C@@H](CCO)c2ccc(Cl)cc2)CCN(c2ncnc3[nH]ccc23)CC1 [Capivasertib] + C[C@@H]1COCCN1C2=NC(=NC(=C2)C3(CC3)[S@](=N)(=O)C)C4=C5C=CNC5=NC=C4 [AZD6738] (first compound max 10 µM, 7x7, partner max 10 µM)
Result: -0.0165

Problem: And the next one, CS(=O)(=O)CCNCc1ccc(-c2ccc3ncnc(Nc4ccc(OCc5cccc(F)c5)c(Cl)c4)c3c2)o1 [Lapatinib] + C[C@@H](Oc1cc(-c2cnn(C3CCNCC3)c2)cnc1N)c1c(Cl)ccc(F)c1Cl [Crizotinib] (first compound max 10 µM, 7x7, partner max 10 µM) ?
Result: 0.0316

Problem: Same question, Cn1cnc2c(F)c(Nc3ccc(Br)cc3Cl)c(C(=O)NOCCO)cc21 [Selumetinib] + C=CCn1c(=O)c2cnc(Nc3ccc(N4CCN(C)CC4)cc3)nc2n1-c1cccc(C(C)(C)O)n1 [AZD1775] (first compound max 10 µM, partner max 1 µM) this time
Result: -0.0575

Problem: Likewise for COc1nnc2ccc(N3CCC(c4ccc(OCCN5CCN(C)C(=O)[C@H]5C)cc4)CC3)nn12 [AZD5153] + C[C@@H]1COCCN1C2=NC(=NC(=C2)C3(CC3)[S@](=N)(=O)C)C4=C5C=CNC5=NC=C4 [AZD6738] (first compound max 1 µM, 7x7, partner max 10 µM) ?
Result: -0.006

Problem: Entry COc1cccc(OCCCN)c1-c1cc(Nc2cnc(C#N)cn2)n[nH]1 [Prexasertib] + CCc1c2c(nc3ccc(O)cc13)-c1cc3c(c(=O)n1C2)COC(=O)[C@]3(O)CC [SN-38] (first compound max 1 µM, 7x7, partner max 0.3 µM) please
Result: 0.0247

Problem: Cool, now CCN(CCO)CCCOc1ccc2c(Nc3cc(CC(=O)Nc4cccc(F)c4)[nH]n3)ncnc2c1 [AZD2811] + C=CCn1c(=O)c2cnc(Nc3ccc(N4CCN(C)CC4)cc3)nc2n1-c1cccc(C(C)(C)O)n1 [AZD1775] (first compound max 1 µM, partner max 1 µM)
Result: 0.0539
